subjectOfTest: human type 1 glycine transporter (GlyT1) (Homo sapiens, UniProt P48067)
Construct: T98G cells (glioma cells) expressing human type 1 glycine transporter (GlyT1) were used; endogenous in cells; host or cells: T98G cells (human glioma cells)
Sequence (P48067 1-706): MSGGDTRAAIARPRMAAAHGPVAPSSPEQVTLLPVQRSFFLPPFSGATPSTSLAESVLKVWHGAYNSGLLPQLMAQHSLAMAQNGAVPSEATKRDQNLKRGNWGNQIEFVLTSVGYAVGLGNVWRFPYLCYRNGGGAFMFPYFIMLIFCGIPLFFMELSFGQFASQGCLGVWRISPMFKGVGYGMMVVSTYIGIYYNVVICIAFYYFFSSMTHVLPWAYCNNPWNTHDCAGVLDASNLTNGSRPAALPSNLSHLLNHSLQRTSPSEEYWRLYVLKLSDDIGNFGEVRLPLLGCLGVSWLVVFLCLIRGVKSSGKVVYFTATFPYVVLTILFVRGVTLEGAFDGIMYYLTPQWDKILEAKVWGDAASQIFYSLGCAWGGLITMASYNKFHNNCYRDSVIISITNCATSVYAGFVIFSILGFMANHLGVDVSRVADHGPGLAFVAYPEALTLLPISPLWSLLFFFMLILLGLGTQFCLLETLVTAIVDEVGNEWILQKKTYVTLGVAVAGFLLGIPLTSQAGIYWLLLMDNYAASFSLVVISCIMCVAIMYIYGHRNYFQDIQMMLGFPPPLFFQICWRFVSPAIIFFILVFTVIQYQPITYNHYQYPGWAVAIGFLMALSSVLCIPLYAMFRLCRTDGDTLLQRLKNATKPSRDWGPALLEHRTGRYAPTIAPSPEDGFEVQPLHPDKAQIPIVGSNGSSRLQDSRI
methodSummary: Glycine uptake inhibition experiment ([3H] glycine uptake in T98G cells expressing GlyT1)
Type: cell-based
experimentalConditions: glycine uptake inhibition
pIC50: −log10 of the molar value.
measuredProperty: pIC50

As a guide, the following entries are already answered.
molecule: O=C1N(Cc2cnc3ccccc3c2)c2cccc([C@@H](O)C(F)(F)F)c2C1(F)F
measuredProperty: pIC50
measuredResult: 7.21
--
molecule: C[C@H](O)c1cccc2c1C(F)(F)C(=O)N2Cc1ccc(C(F)(F)F)o1
measuredProperty: pIC50
measuredResult: 8.22

A = CC(O)c1cccc2c1C(F)(F)C(=O)N2Cc1ccnc(Cl)c1 (stereo not shown) [Compound 27]
B = C[C@H](O)c1cccc2c1C(F)(F)C(=O)N2Cc1c2ccccc2nn1C
Query: API: POST /compare with A and B ; response names the item with higher pIC50. Bench note: the answer is the label of the chosen record.
Result: A
